# TARGET ENTITY: HIV-1 NefNL4-3 (Human immunodeficiency virus type 1 group M subtype B, UniProt P03406, A33V/T15A/T51N/V11I)
# METHOD SUMMARY: Surface plasmon resonance binding to recombinant full-length Nef (NL4-3)
# CONDITION SET: response units at 30 μM relative to Nef immobilized on the SPR chip
Provide the reported RU30/RUNef (extent of binding) of each item.
Report as a plain number; the unit E- 02 is understood.

# RU30/RUNef (extent of binding) (molecule: Oc1c(CCc2ccc(F)cc2)c(C2CC2)nn1-c1nc2cc(Cl)ccc2[nH]1 ) is 2.34

# RU30/RUNef (extent of binding) (molecule: Oc1c(CCc2ccc(F)cc2)c(C2CCNCC2)nn1-c1nc2ccc(Cl)cc2[nH]1 ) is 1.05

# RU30/RUNef (extent of binding) (molecule: Oc1c(CCC2CCNCC2)c(-c2ccc(C(F)(F)F)cc2)nn1-c1nc2ccccc2[nH]1 ) is 1.04

# RU30/RUNef (extent of binding) (molecule: Oc1c(CCc2ccc(F)cc2)c(-c2ccccc2)nn1-c1nc2cc(Cl)ccc2[nH]1 ) is 4.14

###

# TARGET ENTITY: HIV-1 NefNL4-3 (Human immunodeficiency virus type 1 group M subtype B, UniProt P03406, A33V/T15A/T51N/V11I)
# METHOD SUMMARY: Surface plasmon resonance binding to recombinant full-length Nef (NL4-3)
pKd: −log10 of the molar value.
Entry flag: condition met if pKd reaches 6; condition not met if it does not.

stdin: Can Oc1c(CC2CCOCC2)c(-c2ccc(F)cc2)nn1-c1nc2cccnc2[nH]1 [Compound I-313] be said to have pKd at or above 6?
stdout: condition met

stdin: Can CC(C)(C)OC(=O)NCc1nn(-c2nc3ccccc3[nH]2)c(O)c1CCc1ccc(F)cc1 [Compound I-212] be said to have pKd at or above 6?
stdout: condition met

stdin: Can CCOC(=O)N1CCC(c2nn(-c3nc4ccccc4[nH]3)c(O)c2CCC2CCOCC2)CC1 [Compound I-723] be said to have pKd at or above 6?
stdout: condition not met

stdin: Can CS(=O)(=O)N1CCC(Cc2c(-c3ccc(C(F)(F)F)cc3)nn(-c3nc4ccccc4[nH]3)c2O)CC1 [Compound I-718] be said to have pKd at or above 6?
stdout: condition met

stdin: Can Oc1c(CC2CCOCC2)c(C2CC2)nn1-c1nc2cccnc2[nH]1 [Compound I-315] be said to have pKd at or above 6?
stdout: condition not met

stdin: Can O=C(CN1CCOCC1)N1CCCC1c1nn(-c2nc3ccccc3[nH]2)c(O)c1CCc1ccc(F)cc1 (stereo not shown) [Compound I-763] be said to have pKd at or above 6?
stdout: condition met

stdin: Can CC(C)(C)OC(=O)c1ccc(-c2nn(-c3nc4ccccc4[nH]3)c(O)c2CCc2ccc(F)cc2)cc1 [Compound I-208] be said to have pKd at or above 6?
stdout: condition not met

###

# TARGET ENTITY: HIV-1 NefNL4-3 (Human immunodeficiency virus type 1 group M subtype B, UniProt P03406, A33V/T15A/T51N/V11I)
# METHOD SUMMARY: Surface plasmon resonance binding to recombinant full-length Nef (NL4-3)
# CONDITION SET: KD, M, Table 4; SPR fit 1:1 Langmuir, KD = koff/kon
For each record, check the reported Kd: if it is below 900 nM write Fulfilled, else write Not fulfilled.

stdin: For this compound, is Kd lower than 900 nM? CS(=O)(=O)c1ccc(-c2nn(-c3nc4ccccc4[nH]3)c(O)c2CCC2CCN(CC(F)(F)F)CC2)cc1 [Compound I-154]
stdout: Not fulfilled

stdin: For this compound, is Kd lower than 900 nM? Oc1c(CC2CCOCC2)c(C2CC2)nn1-c1nc2ccccc2[nH]1 [Compound I-174]
stdout: Not fulfilled

stdin: For this compound, is Kd lower than 900 nM? Oc1c(CCc2ccc(F)cc2)c(C2CCOCC2)nn1-c1nc2cccnc2[nH]1 [Compound I-314]
stdout: Fulfilled

stdin: For this compound, is Kd lower than 900 nM? O=C(OCc1ccccc1)N1CCC(Cc2c(-c3ccc(C(F)(F)F)cc3)nn(-c3nc4ccccc4[nH]3)c2O)CC1 [Compound I-162]
stdout: Fulfilled

stdin: For this compound, is Kd lower than 900 nM? Oc1c(CCc2ccc(F)cc2)c(-c2ccc(C(F)(F)F)cc2)nn1-c1nc2ccncc2[nH]1 [Compound I-309]
stdout: Fulfilled

stdin: For this compound, is Kd lower than 900 nM? CS(=O)(=O)N1CCC(c2nn(-c3nc4cc(Cl)ccc4[nH]3)c(O)c2CCC2CCOCC2)CC1 [Compound I-706]
stdout: Not fulfilled

stdin: For this compound, is Kd lower than 900 nM? Oc1c(CCc2ccc(F)cc2)c(C2CCOCC2)nn1-c1cc(C(F)(F)F)n[nH]1 [Compound I-623]
stdout: Not fulfilled

stdin: For this compound, is Kd lower than 900 nM? CS(=O)(=O)N1CCC(c2nn(-c3nc4cc(Cl)ccc4[nH]3)c(O)c2CCn2nccn2)CC1 [Compound I-707]
stdout: Not fulfilled

stdin: For this compound, is Kd lower than 900 nM? Oc1c(CCc2ccc(F)cc2)c(C2CCN(Cc3cccnc3)CC2)nn1-c1nc2ccccc2[nH]1 [Compound I-803]
stdout: Fulfilled

stdin: For this compound, is Kd lower than 900 nM? Oc1c(CC2CCOCC2)c(C2CC(F)(F)C2)nn1-c1nc2ccccc2[nH]1 [Compound I-176]
stdout: Not fulfilled

stdin: For this compound, is Kd lower than 900 nM? Cn1c(-n2nc(-c3cccc(S(C)(=O)=O)c3)c(CCc3ccc(F)cc3)c2O)nc2ccccc21 [Compound I-405]
stdout: Not fulfilled

stdin: For this compound, is Kd lower than 900 nM? Oc1c(CCc2ccc(F)cc2)c(CC2CCN(CC(F)(F)F)CC2)nn1-c1nc2ccccc2[nH]1 [Compound I-1004]
stdout: Fulfilled

stdin: For this compound, is Kd lower than 900 nM? CC(C)OC(=O)N1CCC(c2nn(-c3nc4ccccc4[nH]3)c(O)c2CC2CCOCC2)CC1 [Compound I-725]
stdout: Not fulfilled

stdin: For this compound, is Kd lower than 900 nM? CC(C)(O)C(=O)N1CCC(Cc2nn(-c3nc4ccccc4[nH]3)c(O)c2CCc2ccc(F)cc2)CC1 [Compound I-777]
stdout: Not fulfilled

stdin: For this compound, is Kd lower than 900 nM? O=C(Cc1ccncc1)N1CCCC1c1nn(-c2nc3ccccc3[nH]2)c(O)c1CCc1ccc(F)cc1 (stereo not drawn) [Compound I-760]
stdout: Fulfilled

stdin: For this compound, is Kd lower than 900 nM? C[C@@](O)(C(=O)N1CCC(CCc2c(C3CC3)nn(-c3nc4ccccc4[nH]3)c2O)CC1)C(F)(F)F [Compound I-783]
stdout: Not fulfilled

stdin: For this compound, is Kd lower than 900 nM? CS(=O)(=O)c1cccc(-c2nn(-c3nc4cccnc4[nH]3)c(O)c2CCC2CCOCC2)c1 [Compound I-305]
stdout: Fulfilled
